Origin of measurements: patent US6069176A

molecular target: β3 adrenergic receptor (Rattus norvegicus); assay: cell-based; set-up: Isolated rat fat was used to examine the effect on fat decomposition; from tissue; host or cells: adipocytes from fat around the testicles of male SD rats; species or system rat (male SD rats); conditions: rat adipocyte suspension, 30 minutes at 30° C., glycerol content; read-out: lypolytic activity (EC50 value)
Sequence (P26255 whole entry): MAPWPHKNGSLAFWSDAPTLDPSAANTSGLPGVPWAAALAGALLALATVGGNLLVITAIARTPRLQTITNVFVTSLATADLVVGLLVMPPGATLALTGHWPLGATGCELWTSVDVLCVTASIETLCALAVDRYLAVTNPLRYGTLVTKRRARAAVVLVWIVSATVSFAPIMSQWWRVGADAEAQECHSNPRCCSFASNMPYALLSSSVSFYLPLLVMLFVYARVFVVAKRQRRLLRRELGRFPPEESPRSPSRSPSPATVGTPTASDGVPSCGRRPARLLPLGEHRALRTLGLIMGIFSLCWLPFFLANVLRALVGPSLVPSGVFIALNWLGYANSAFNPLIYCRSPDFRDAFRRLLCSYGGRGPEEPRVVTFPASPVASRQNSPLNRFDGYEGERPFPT
Outcome Measure: EC50 (nM)
Answers are plain numbers, in nM.

So for O=C([O-])COc1cccc(C2CCCC(NC[C@H](O)c3cccc(Cl)c3)C2)c1.[Na+] (stereo partly shown) , the logged EC50 turned out to be 21

* * *

biological target: β2 adrenergic receptor (Cavia porcellus, UniProt Q8K4Z4); experiment: [Test 3] relaxing effect on isolated guinea pig tracheal muscle (β2 adrenergic receptor stimulating effect)
Sequence (Q8K4Z4 whole entry): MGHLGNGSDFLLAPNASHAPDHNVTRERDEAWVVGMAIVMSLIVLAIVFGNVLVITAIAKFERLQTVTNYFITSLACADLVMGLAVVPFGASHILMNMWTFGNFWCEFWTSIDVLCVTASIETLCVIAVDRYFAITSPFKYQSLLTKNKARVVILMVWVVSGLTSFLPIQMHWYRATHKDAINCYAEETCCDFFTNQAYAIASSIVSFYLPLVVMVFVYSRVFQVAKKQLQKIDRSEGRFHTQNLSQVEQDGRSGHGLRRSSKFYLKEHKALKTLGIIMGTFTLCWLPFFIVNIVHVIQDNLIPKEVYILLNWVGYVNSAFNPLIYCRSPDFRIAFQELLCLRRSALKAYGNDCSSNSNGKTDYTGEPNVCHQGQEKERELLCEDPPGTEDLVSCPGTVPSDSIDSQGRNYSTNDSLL
Where a name gives a salt, the structure may show the parent alone.
Threshold 1000 nM. EC50 below it: 1 (yes). EC50 at it or above: 0 (no).

| Compound | Group |
| --- | --- |
| O=C(O)COc1ccc(C2CCCC(NC[C@H](O)c3cccc(Cl)c3)C2)cc1 (single isomer, unassigned) [Example 32, acetate] | 0 (no) |
| CCOC(=O)COc1ccc(C2CCCC(NC[C@H](O)c3cccc(Cl)c3)C2)cc1 (some centres unmarked) [Example 28, hydrochloride] | 0 (no) |
| CCOC(=O)COc1ccc(C2CCC(NC[C@H](O)c3cccc(Cl)c3)C2)cc1 (some centres unmarked) [Example 69] | 1 (yes) |

Task item: API: query returns whether the compound falls strictly under 1000 nM in EC50. Query: O=C([O-])COc1ccccc1C1CCCC(NC[C@H](O)c2cccc(Cl)c2)C1.[Na+] (some centres unmarked)
Reply: 1 (yes)

Task item: API: query returns whether the compound falls strictly under 1000 nM in EC50. Query: CCOC(=O)COc1ccccc1C1CCCC(NC[C@H](O)c2cccc(Cl)c2)C1 (some centres unmarked) [Example 43, hydrochloride]
Reply: 1 (yes)

Task item: API: query returns whether the compound falls strictly under 1000 nM in EC50. Query: O=C([O-])COc1cccc(C2CCCC(NC[C@H](O)c3cccc(Cl)c3)C2)c1.[Na+] (some centres unmarked)
Reply: 0 (no)

Task item: API: query returns whether the compound falls strictly under 1000 nM in EC50. Query: CCOC(=O)COc1ccc2c(c1)CC(NCC(O)c1cccc(Cl)c1)CC2.Cl (racemic) [SR 58611A, hydrochloride, reference compound]
Reply: 0 (no)

Task item: API: query returns whether the compound falls strictly under 1000 nM in EC50. Query: CCOC(=O)COc1cccc(C2CCCC(NC[C@H](O)c3cccc(Cl)c3)C2)c1 (some centres unmarked) [Example 11, hydrochloride]
Reply: 1 (yes)
